# Enzyme Activity Endpoint Assay (purified): Fab'2 annotations
# tgt: pooled human IgG
Your answer should be a plain number; it is taken to be in ng/µL.

protein="PRT-129 (protein) MRNATEAYAKEVPHQITSVWTKGVTPLTPEQFRYNNEDVFHAPYLANQGWYDITKAFDGKDNLLCGAATAGNMLHWWFDQNKTEIEAYLSKHPEKQKIIFNNQELFDLKAAIDTKDSQTNSQLFNYFRDKAFPNLSARQLGVMPDLVLDMFINGYYLNVFKTQSTDVNRPYQDKDKRGGIFDAVFTRGDQTKLLTARHDLKNKGLNDISTLIKQELTEGRALALSHTYANVSISHVINLWGADFNAEGNLEAIYVTDSDANASIGMKKYFVGINAHGHVAISAKKIEGENIGAQVLGLFTLSSGKDIWQKLS" result_number=384

Next item in the queue.
Request: Quick one: Enzyme Activity Endpoint Assay (purified): Fab'2 of PRT-111 (protein) MRNATEAYAKEVPHQITSVWTKGVTPPTPEQFRYNNEDVFHAPYLAHQGWYDITKTFNGKDNLLCGAATAGNMLHWWFDQNKTEIEAYLKKHPEKQKIIFNNQELFDLKAAIDTKDSQTNSQLFNYFRDKAFPNLSARQLGVMPDLVLDMFINGYYLNVFKTQSTDVNRPYQDKDKRGGIFDAVFTRGDQTTLLTNRHDLKNKGLNDISTLIKQELTEGKALALSHTYANVSISHVINLWGADFNAEGNLEAIYVTDSDANASIGMKKYFVGINSAGHVAISAKKIEGENIGAQVLGLFTLSSGKDIWQKLS ?
Response: 328

Reference for the values: patent US20250027068
